Measured Count of individual entries
# test_system: Human Myelin PLP (human) (UniProt P60201)
# Sequence (P60201 2-277 limits assumed): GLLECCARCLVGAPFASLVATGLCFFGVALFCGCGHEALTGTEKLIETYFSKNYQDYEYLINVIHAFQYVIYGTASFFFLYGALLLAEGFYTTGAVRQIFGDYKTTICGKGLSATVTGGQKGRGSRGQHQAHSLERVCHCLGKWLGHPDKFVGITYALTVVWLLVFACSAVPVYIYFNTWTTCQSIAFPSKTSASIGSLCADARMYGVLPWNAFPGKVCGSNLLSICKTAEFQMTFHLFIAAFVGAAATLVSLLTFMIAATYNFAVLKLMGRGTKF
# assay_text: phage display, NGS count
quantity: Count

- substance: "LHQTYRP (peptide)"
  assay_value: 27
- substance: "GWSTAIR (peptide)"
  assay_value: 29
- substance: "SLNRGGA (peptide)"
  assay_value: 28
- substance: "IHHLESS (peptide)"
  assay_value: 32
- substance: "WSPHRSF (peptide)"
  assay_value: 31
- substance: "LPLRLHA (peptide)"
  assay_value: 31
- substance: "EKPSWTR (peptide)"
  assay_value: 33
- substance: "SMWSQFR (peptide)"
  assay_value: 34
- substance: "AQASSAR (peptide)"
  assay_value: 27
- substance: "HLHTRPT (peptide)"
  assay_value: 27
- substance: "DRHEGHR (peptide)"
  assay_value: 26
- substance: "SGLHYAL (peptide)"
  assay_value: 32
- substance: "WNTADRL (peptide)"
  assay_value: 34
- substance: "NDASTVS (peptide)"
  assay_value: 28
- substance: "TQPRYPS (peptide)"
  assay_value: 28
- substance: "GKSYSQI (peptide)"
  assay_value: 31
- substance: "GHLQSLF (peptide)"
  assay_value: 26
- substance: "IRPTHNG (peptide)"
  assay_value: 27
- substance: "DGSRDLV (peptide)"
  assay_value: 30
- substance: "TKITPHR (peptide)"
  assay_value: 29
- substance: "TMPIKAM (peptide)"
  assay_value: 27
- substance: "SLPGYRH (peptide)"
  assay_value: 28
- substance: "FSLDRDG (peptide)"
  assay_value: 29
- substance: "TGISSTP (peptide)"
  assay_value: 27
- substance: "LPHRLNP (peptide)"
  assay_value: 27
- substance: "LRFQIPP (peptide)"
  assay_value: 44
- substance: "YTPMGTG (peptide)"
  assay_value: 50
- substance: "LALYARM (peptide)"
  assay_value: 44
- substance: "VSSQEQA (peptide)"
  assay_value: 34
- substance: "ASLTLAL (peptide)"
  assay_value: 26
- substance: "QLPRNNL (peptide)"
  assay_value: 28
- substance: "VGYRSAS (peptide)"
  assay_value: 28
- substance: "TRASYPQ (peptide)"
  assay_value: 32
- substance: "MPHAPVQ (peptide)"
  assay_value: 37
- substance: "WSPHGYK (peptide)"
  assay_value: 27
- substance: "TDVEMVP (peptide)"
  assay_value: 40
- substance: "MKIMPMD (peptide)"
  assay_value: 26
- substance: "RLQPEPT (peptide)"
  assay_value: 33
- substance: "SVLPDKL (peptide)"
  assay_value: 28
- substance: "NPNWRTI (peptide)"
  assay_value: 34
- substance: "SVEKYSK (peptide)"
  assay_value: 33
- substance: "WHYTPSM (peptide)"
  assay_value: 26
- substance: "FSTPTNV (peptide)"
  assay_value: 29
- substance: "GLIRHYT (peptide)"
  assay_value: 66
- substance: "TLWAQKT (peptide)"
  assay_value: 28
- substance: "WSRISVD (peptide)"
  assay_value: 26
- substance: "AHQSSVT (peptide)"
  assay_value: 42
- substance: "YPKLWTY (peptide)"
  assay_value: 35
- substance: "GSAWKKH (peptide)"
  assay_value: 44
- substance: "VSASWMP (peptide)"
  assay_value: 27
- substance: "FKMPIPT (peptide)"
  assay_value: 34
- substance: "NPSHHPR (peptide)"
  assay_value: 37
- substance: "GPAAVII (peptide)"
  assay_value: 29
- substance: "SLPSLLP (peptide)"
  assay_value: 26
- substance: "VRTSMNH (peptide)"
  assay_value: 28
- substance: "GIPSSKN (peptide)"
  assay_value: 28
- substance: "QPNMLKP (peptide)"
  assay_value: 33
- substance: "KPSASIY (peptide)"
  assay_value: 26
- substance: "YTWTPSR (peptide)"
  assay_value: 28
- substance: "EKSTTVA (peptide)"
  assay_value: 30
- substance: "NIPSSIL (peptide)"
  assay_value: 33
- substance: "VPGHISG (peptide)"
  assay_value: 27
- substance: "SGVATYT (peptide)"
  assay_value: 31
- substance: "SWDVLEL (peptide)"
  assay_value: 31
- substance: "RHNVEFS (peptide)"
  assay_value: 42
- substance: "AVVAMNK (peptide)"
  assay_value: 28
- substance: "VTGPGTP (peptide)"
  assay_value: 26
- substance: "ALFQERK (peptide)"
  assay_value: 27
- substance: "NVFSATP (peptide)"
  assay_value: 31
- substance: "DTSRTME (peptide)"
  assay_value: 33
- substance: "ARFVPLT (peptide)"
  assay_value: 30
- substance: "YSDTYKH (peptide)"
  assay_value: 30
